- Test system: Crude diglycosidase
- assay-method-text: Examination of temperature in the conversion into isoflavone aglycons by diglycosidase using soybean materials
- Assay type: biochemical, Penicillium multicolor IAM7153
- Set-up: concentration or dose not given beside the values
- condition-description: 80 °C; heat treatment of enzyme: no; 0 h
The following compounds are listed with their measured Decomposition efficiency of daidzin family in roasted soy flour values.
property-name: Decomposition efficiency of daidzin family in roasted soy flour (%)

compound: CC(=O)OC[C@H]1O[C@@H](Oc2ccc3c(=O)c(-c4ccc(O)cc4)coc3c2)[C@H](O)[C@@H](O)[C@@H]1O [acetyldaidzin, 6″-O-acetyldaidzin]
units-of-measure: %
observed-value: 47.7
//
compound: O=c1c(-c2ccc(O)cc2)coc2cc(O)ccc12 [daidzein]
units-of-measure: %
observed-value: 3.7
//
compound: O=c1c(-c2ccc(O)cc2)coc2cc(O[C@@H]3O[C@H](CO)[C@@H](O)[C@H](O)[C@H]3O)ccc12 [daidzin]
units-of-measure: %
observed-value: 48.6

* * *

- System: Crude diglycosidase
- assay-method-text: Examination of temperature in the conversion into isoflavone aglycons by diglycosidase using soybean materials
- Assay type: biochemical, Penicillium multicolor IAM7153
- condition-description: 45° C., heat treatment of enzyme yes, reaction time 6 h
property-name: Decomposition efficiency of daidzin family in concentrated soybean protein (%)

compound: O=c1c(-c2ccc(O)cc2)coc2cc(O)ccc12 [daidzein]
observed-value: 5.7
--
compound: CC(=O)OC[C@H]1O[C@@H](Oc2ccc3c(=O)c(-c4ccc(O)cc4)coc3c2)[C@H](O)[C@@H](O)[C@@H]1O [acetyldaidzin, 6″-O-acetyldaidzin]
observed-value: 0.0
--
compound: O=c1c(-c2ccc(O)cc2)coc2cc(O[C@@H]3O[C@H](CO)[C@@H](O)[C@H](O)[C@H]3O)ccc12 [daidzin]
observed-value: 94.3

* * *

- Test system: Crude diglycosidase
- assay-method-text: Examination of substrate concentration in the conversion into isoflavone aglycons by diglycosidase using soybean materials;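 note: percent of the isoflavone family total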
- Assay type: biochemical, Penicillium multicolor IAM7153
- condition-description: concentrated soybean protein, substrate concentration 20%, heat treatment of enzyme no, reaction time 3 h
property-name: Decomposition efficiency: ratio of each glycoside/aglycon within its isoflavone family

molecular-string: O=C(O)CC(=O)OC[C@H]1O[C@@H](Oc2cc(O)c3c(=O)c(-c4ccc(O)cc4)coc3c2)[C@H](O)[C@@H](O)[C@@H]1O
observed-value: not detected
--
molecular-string: COc1cc2c(=O)c(-c3ccc(O)cc3)coc2cc1O[C@@H]1O[C@H](CO)[C@@H](O)[C@H](O)[C@H]1O
observed-value: not detected
--
molecular-string: COc1cc2c(=O)c(-c3ccc(O)cc3)coc2cc1O[C@@H]1O[C@H](COC(=O)CC(=O)O)[C@@H](O)[C@H](O)[C@H]1O
observed-value: 0.2%
--
molecular-string: CC(=O)OC[C@H]1O[C@@H](Oc2ccc3c(=O)c(-c4ccc(O)cc4)coc3c2)[C@H](O)[C@@H](O)[C@@H]1O
observed-value: 41.5%
--
molecular-string: O=c1c(-c2ccc(O)cc2)coc2cc(O[C@@H]3O[C@H](CO)[C@@H](O)[C@H](O)[C@H]3O)cc(O)c12
observed-value: not detected
--
molecular-string: O=c1c(-c2ccc(O)cc2)coc2cc(O[C@@H]3O[C@H](CO)[C@@H](O)[C@H](O)[C@H]3O)ccc12
observed-value: not detected

* * *

- Test system: Crude diglycosidase
- assay-method-text: Examination of substrate concentration in the conversion into isoflavone aglycons by diglycosidase using soybean materials;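 note: percent of the isoflavone family total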
- Type: biochemical, Penicillium multicolor IAM7153
- condition-description: soymilk, substrate concentration 2%, heat treatment of enzyme no, reaction time 1 h
property-name: Decomposition efficiency: ratio of each glycoside/aglycon within its isoflavone family

molecular-string: O=c1c(-c2ccc(O)cc2)coc2cc(O[C@@H]3O[C@H](CO)[C@@H](O)[C@H](O)[C@H]3O)cc(O)c12
tgt: Crude diglycosidase
observed-value: not detected
--
molecular-string: CC(=O)OC[C@H]1O[C@@H](Oc2ccc3c(=O)c(-c4ccc(O)cc4)coc3c2)[C@H](O)[C@@H](O)[C@@H]1O
tgt: Crude diglycosidase
observed-value: not detected
--
molecular-string: O=c1c(-c2ccc(O)cc2)coc2cc(O[C@@H]3O[C@H](CO)[C@@H](O)[C@H](O)[C@H]3O)ccc12
tgt: Crude diglycosidase
observed-value: not detected
--
molecular-string: COc1cc2c(=O)c(-c3ccc(O)cc3)coc2cc1O
tgt: Crude diglycosidase
observed-value: 100.0%

* * *

- Test system: Crude diglycosidase
- assay-method-text: Examination of temperature in the conversion into isoflavone aglycons by diglycosidase using soybean materials
- Assay type: biochemical, Penicillium multicolor IAM7153
- Design: concentration or dose not given beside the values
- condition-description: 55 °C; heat treatment of enzyme: yes; 6 h
The following molecules are listed with their measured Decomposition efficiency of daidzin family in soymilk values.
property-name: Decomposition efficiency of daidzin family in soymilk

molecular-string: O=c1c(-c2ccc(O)cc2)coc2cc(O[C@@H]3O[C@H](CO)[C@@H](O)[C@H](O)[C@H]3O)ccc12
observed-value: 40.7%
--
molecular-string: O=C(O)CC(=O)OC[C@H]1O[C@@H](Oc2ccc3c(=O)c(-c4ccc(O)cc4)coc3c2)[C@H](O)[C@@H](O)[C@@H]1O
observed-value: 50.8%
--
molecular-string: O=c1c(-c2ccc(O)cc2)coc2cc(O)ccc12
observed-value: 8.6%

* * *

The following compounds are listed with their measured Decomposition efficiency: ratio of each glycoside/aglycon within its isoflavone family values.
- Tested on: Crude diglycosidase
- assay-method-text: Examination of substrate concentration in the conversion into isoflavone aglycons by diglycosidase using soybean materials;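 note: percent of the isoflavone family total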
- Format: biochemical, Penicillium multicolor IAM7153
- condition-description: soymilk, substrate concentration 20%, heat treatment of enzyme no, reaction time 1 h
property-name: Decomposition efficiency: ratio of each glycoside/aglycon within its isoflavone family (%)

molecular-string: O=C(O)CC(=O)OC[C@H]1O[C@@H](Oc2cc(O)c3c(=O)c(-c4ccc(O)cc4)coc3c2)[C@H](O)[C@@H](O)[C@@H]1O
tgt: Crude diglycosidase
observed-value: 37.6

molecular-string: O=C(O)CC(=O)OC[C@H]1O[C@@H](Oc2ccc3c(=O)c(-c4ccc(O)cc4)coc3c2)[C@H](O)[C@@H](O)[C@@H]1O
tgt: Crude diglycosidase
observed-value: 41.2

* * *

The following compounds are listed with their measured Decomposition efficiency of glycitin family in defatted soybean values.
- Tested on: Crude diglycosidase
- assay-method-text: Examination of temperature in the conversion into isoflavone aglycons by diglycosidase using soybean materials
- Format: biochemical, Penicillium multicolor IAM7153
- Design: concentration or dose not given beside the values
- condition-description: 45° C., heat treatment of enzyme no, reaction time 1 h
property-name: Decomposition efficiency of glycitin family in defatted soybean (%)

compound: COc1cc2c(=O)c(-c3ccc(O)cc3)coc2cc1O [glycitein]
observed-value: 55.7

compound: COc1cc2c(=O)c(-c3ccc(O)cc3)coc2cc1O[C@@H]1O[C@H](COC(=O)CC(=O)O)[C@@H](O)[C@H](O)[C@H]1O [malonylglycitin, 6″-O-malonylglycitin]
observed-value: 44.3

* * *

The following molecules are listed with their measured Decomposition efficiency: ratio of each glycoside/aglycon within its isoflavone family values.
- Tested on: Crude diglycosidase
- assay-method-text: Examination of substrate concentration in the conversion into isoflavone aglycons by diglycosidase using soybean materials;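 note: percent of the isoflavone family total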
- Assay type: biochemical, Penicillium multicolor IAM7153
- condition-description: concentrated soybean protein, substrate concentration 5%, heat treatment of enzyme no, reaction time 1 h
property-name: Decomposition efficiency: ratio of each glycoside/aglycon within its isoflavone family (%)

molecule: CC(=O)OC[C@H]1O[C@@H](Oc2cc(O)c3c(=O)c(-c4ccc(O)cc4)coc3c2)[C@H](O)[C@@H](O)[C@@H]1O [acetylgenistin, 6″-O-acetylgenistin]
observed-value: 36.4
--
molecule: COc1cc2c(=O)c(-c3ccc(O)cc3)coc2cc1O[C@@H]1O[C@H](COC(=O)CC(=O)O)[C@@H](O)[C@H](O)[C@H]1O [malonylglycitin, 6″-O-malonylglycitin]
observed-value: 0.5
--
molecule: COc1cc2c(=O)c(-c3ccc(O)cc3)coc2cc1O[C@@H]1O[C@H](COC(C)=O)[C@@H](O)[C@H](O)[C@H]1O [acetylglycitin, 6″-O-acetylglycitin]
observed-value: 27.1
--
molecule: COc1cc2c(=O)c(-c3ccc(O)cc3)coc2cc1O [glycitein]
observed-value: 72.4

* * *

- Tested on: Crude diglycosidase
- assay-method-text: Examination of temperature in the conversion into isoflavone aglycons by diglycosidase using soybean materials
- Assay type: biochemical, Penicillium multicolor IAM7153
- condition-description: 30° C., heat treatment of enzyme no, reaction time 3 h
The following compounds are listed with their measured Decomposition efficiency of daidzin family in concentrated soybean protein values.
property-name: Decomposition efficiency of daidzin family in concentrated soybean protein (%)

molecular-string: CC(=O)OC[C@H]1O[C@@H](Oc2ccc3c(=O)c(-c4ccc(O)cc4)coc3c2)[C@H](O)[C@@H](O)[C@@H]1O
units-of-measure: %
observed-value: 43.9
--
molecular-string: O=c1c(-c2ccc(O)cc2)coc2cc(O[C@@H]3O[C@H](CO)[C@@H](O)[C@H](O)[C@H]3O)ccc12
units-of-measure: %
observed-value: 13.4
--
molecular-string: O=c1c(-c2ccc(O)cc2)coc2cc(O)ccc12
units-of-measure: %
observed-value: 42.7
